TARGET: T1, Full-length human Leucine-rich repeat kinase 2 (LRRK2), N-terminal Strep/Flag (SF) tagged (human, UniProt Q5S007 1-2527)
T1 construct: Purified from HEK293T cells in presence of GDP or GTPγS; also called FL LRRK2; FL-LRRK2
T1 sequence (Q5S007 other isoform, or with tags, fused parts or gaps limits assumed): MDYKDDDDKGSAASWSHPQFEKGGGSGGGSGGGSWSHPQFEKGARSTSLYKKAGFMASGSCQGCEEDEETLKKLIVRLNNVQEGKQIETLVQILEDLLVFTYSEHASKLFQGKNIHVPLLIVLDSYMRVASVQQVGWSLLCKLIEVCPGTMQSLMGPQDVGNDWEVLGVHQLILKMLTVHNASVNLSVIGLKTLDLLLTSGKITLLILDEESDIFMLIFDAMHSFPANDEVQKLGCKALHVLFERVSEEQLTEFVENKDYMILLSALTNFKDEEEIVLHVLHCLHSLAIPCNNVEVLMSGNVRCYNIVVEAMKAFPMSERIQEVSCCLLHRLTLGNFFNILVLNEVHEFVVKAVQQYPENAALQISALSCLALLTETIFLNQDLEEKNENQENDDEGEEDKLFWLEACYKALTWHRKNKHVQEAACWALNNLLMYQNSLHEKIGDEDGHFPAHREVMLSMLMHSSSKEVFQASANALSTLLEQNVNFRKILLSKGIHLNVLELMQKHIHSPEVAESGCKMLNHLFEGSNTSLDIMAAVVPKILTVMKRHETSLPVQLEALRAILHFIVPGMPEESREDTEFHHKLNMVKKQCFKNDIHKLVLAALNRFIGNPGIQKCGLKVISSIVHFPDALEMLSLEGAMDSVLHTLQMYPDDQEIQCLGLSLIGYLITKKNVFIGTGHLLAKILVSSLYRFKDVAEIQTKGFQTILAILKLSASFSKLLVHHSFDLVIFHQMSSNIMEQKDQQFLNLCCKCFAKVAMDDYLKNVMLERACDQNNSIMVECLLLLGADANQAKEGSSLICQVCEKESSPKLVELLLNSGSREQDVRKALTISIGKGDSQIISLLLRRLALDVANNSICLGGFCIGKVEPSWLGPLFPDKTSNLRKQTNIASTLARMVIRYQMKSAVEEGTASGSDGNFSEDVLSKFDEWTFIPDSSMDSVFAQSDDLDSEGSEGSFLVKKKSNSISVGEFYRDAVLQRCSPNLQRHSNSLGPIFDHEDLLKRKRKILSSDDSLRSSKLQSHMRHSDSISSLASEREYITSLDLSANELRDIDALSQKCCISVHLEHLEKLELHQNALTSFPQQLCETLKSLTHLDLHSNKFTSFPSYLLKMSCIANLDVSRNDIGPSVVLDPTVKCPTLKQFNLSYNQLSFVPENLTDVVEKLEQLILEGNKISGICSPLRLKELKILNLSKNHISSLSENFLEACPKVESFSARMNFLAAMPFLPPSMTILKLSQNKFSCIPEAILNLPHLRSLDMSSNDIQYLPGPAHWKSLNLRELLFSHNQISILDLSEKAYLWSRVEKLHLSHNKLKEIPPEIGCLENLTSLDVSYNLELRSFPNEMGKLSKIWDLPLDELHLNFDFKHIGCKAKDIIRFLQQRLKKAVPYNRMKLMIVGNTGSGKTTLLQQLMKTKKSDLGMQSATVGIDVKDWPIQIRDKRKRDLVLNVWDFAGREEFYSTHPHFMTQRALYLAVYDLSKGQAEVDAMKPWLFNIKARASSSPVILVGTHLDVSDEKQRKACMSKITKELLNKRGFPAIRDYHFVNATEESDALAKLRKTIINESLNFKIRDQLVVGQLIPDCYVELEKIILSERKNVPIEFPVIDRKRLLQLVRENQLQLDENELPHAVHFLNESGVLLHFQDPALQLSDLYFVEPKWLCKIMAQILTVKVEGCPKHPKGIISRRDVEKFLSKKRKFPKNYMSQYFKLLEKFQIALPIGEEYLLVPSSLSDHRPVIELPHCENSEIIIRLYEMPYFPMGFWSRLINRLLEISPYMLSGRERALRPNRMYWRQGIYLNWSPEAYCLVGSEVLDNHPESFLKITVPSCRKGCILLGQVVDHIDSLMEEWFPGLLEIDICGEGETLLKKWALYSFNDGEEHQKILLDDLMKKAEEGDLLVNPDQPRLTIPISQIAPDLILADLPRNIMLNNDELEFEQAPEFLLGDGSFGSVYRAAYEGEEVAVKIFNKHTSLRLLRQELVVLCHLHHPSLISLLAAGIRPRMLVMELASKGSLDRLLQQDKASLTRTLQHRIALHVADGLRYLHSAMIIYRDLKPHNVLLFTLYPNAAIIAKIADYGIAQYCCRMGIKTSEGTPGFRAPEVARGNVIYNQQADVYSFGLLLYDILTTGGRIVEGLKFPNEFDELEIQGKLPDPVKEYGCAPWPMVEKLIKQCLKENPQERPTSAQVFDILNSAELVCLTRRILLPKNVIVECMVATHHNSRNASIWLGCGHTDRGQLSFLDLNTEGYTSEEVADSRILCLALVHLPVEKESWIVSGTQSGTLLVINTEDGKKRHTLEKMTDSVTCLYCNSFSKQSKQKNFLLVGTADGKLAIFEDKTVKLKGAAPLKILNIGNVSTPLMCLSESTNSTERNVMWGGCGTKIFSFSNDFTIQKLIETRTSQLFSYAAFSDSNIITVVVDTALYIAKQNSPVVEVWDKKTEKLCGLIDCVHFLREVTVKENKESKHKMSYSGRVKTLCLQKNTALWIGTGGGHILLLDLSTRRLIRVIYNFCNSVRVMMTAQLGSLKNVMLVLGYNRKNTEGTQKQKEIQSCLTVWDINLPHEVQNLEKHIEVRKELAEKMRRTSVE
PROTOCOL DESCRIPTION: BLI; Nb on LRRK2 trapped on streptavidin sensor via biotinylated Nb40; steady-state fit
QUANTITY MEASURED: pKd
Friendly reminder that pKd comes from taking -log10 of the concentration in mol/L.

Query: Could you tell me which pKd is on file for Nb22 (CA13611) (VHH) VHH: QVQLVESGGGLVQAGGSLRLSCAASGRTFSSYTMGWFRQAPGKEREFVAAIRWSGGSTYYADSVKGRFTISRDNAKNTVYLQMNSLKPEDTAVYYCAASDRGGFIATSGGWMDYWGKGTQVTVSS ?
Response: 7.12

Query: Could you tell me which pKd is on file for Nb42 (CA14259) (VHH, biotinylated form used as trapping agent in BLI of Nb40) VHH: QVQLVESGGGLVQAGGSLRLSCAASGDVNYAVGWFRQAPRKEREFVAAINWRGDNTDYTDSVKGRFTISRDNAKNTVYLQMNSLKPEDTAVYYCAAKSAPYWYSDIAPDYWGQGTQVTVSS ?
Response: 7.09

Query: Could you tell me which pKd is on file for Nb36 (CA14130) (VHH) VHH: QVQLVESGGGLVQPGGSLRLSCAASGSIRSITTSAWFRQPPGKQRELVAGISSGTSTNYADSVKGRFTISRDNAKNTVYLQMNSLKPEDTAVYYCHVWISGTWYSGQGTQVTVSS ?
Response: 7.29

Query: Could you tell me which pKd is on file for Nb17 (CA13606) (VHH) VHH: QVQLVESGGGLVQPGGSLRLSCAASGSNIGYMAWYRQAPGSQRELVARIASGGSANYADSVKGRFTISRDNVKNTVYLHMNSLKPVDTAVYYCHADAWYNSRWSDYWGQGTQVTVSS ?
Response: 7.96

Query: Could you tell me which pKd is on file for Nb1 (CA12610) (VHH) VHH: QVQLVESGGGLVQAGGSLRLSCVASGRIFSGNAMGWYRQAPGRQRELVAGITNGGYTNYRQFVKGRFTISRDNAKRTVYLQMNSLKPEDTAVYYCNALDREARQVDYWGQGTQVTVSS ?
Response: 6.94

Query: Could you tell me which pKd is on file for Nb38 (CA14133) (VHH) VHH: QVQLVESGGGLVQPGGSLRLSCAASGSIRSIATSAWYRQPPGKQRELVAGISSGTTTNYADSVKGRFTISRDNAKNTVYLQMNSLKPEDTAVYYCHAWISGTWISGQGTQVTVSS ?
Response: 7.07

Query: Could you tell me which pKd is on file for Nb6 (CA12618) (VHH) VHH: QVQLVESGGGLVQAGGSLRLSCAASGSIFSPTAMGWYRQAPGKERELVAGITSGGYTNYRNFARGRFTISRDNAKKTVYLQMNSLNPEDTAVYYCNTLTISWSWGQGTQVTVSS ?
Response: 8.15

Query: Could you tell me which pKd is on file for Nb39 (CA14134) (VHH) VHH: QVQLVESGGGLVQAGGSLRLSCRASGGTFSTYAMGWFRQVPGKERETVAAVKWSGDMTYYADSVKGRFTISRDNAKNTVYLQMNSLRPEDTAVYYCAARRGLSYYRGPSEYDYWGQGTQVTVSS ?
Response: 7.68
